Tested on: BACE1 ECD (as used in the enzyme activity assay) (UniProt P56817 22-457, limits assumed)
Sequence (P56817 22-457 limits assumed): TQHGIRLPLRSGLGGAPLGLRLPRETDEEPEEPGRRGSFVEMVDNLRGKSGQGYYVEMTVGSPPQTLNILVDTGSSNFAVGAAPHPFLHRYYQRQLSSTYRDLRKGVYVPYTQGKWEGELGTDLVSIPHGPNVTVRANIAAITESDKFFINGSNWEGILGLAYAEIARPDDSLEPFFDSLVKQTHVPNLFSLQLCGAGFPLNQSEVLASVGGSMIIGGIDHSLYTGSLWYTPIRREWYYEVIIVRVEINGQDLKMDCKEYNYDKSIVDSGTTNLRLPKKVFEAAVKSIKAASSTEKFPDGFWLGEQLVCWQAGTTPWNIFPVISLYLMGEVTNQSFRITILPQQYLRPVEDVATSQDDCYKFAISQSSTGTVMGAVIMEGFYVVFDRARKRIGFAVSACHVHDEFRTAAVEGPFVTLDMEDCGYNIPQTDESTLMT
Test name: cell-based or functional assay
Reported endpoint: EC50, HTRF long substrate assay (nM)

[[record]]
binder = "5894 (antibody, V domains shown) VH: QVQLVQSGAEVKKPGSSVKVSCKASGGTFSGYAISWVRQAPGQGLEWMGNIIPGFGTANYAQKFQGRVTITADESTSTAYMELSSLRSEDTAVYYCARSGGTKYGMLDVWGQGTMVTVSS VL: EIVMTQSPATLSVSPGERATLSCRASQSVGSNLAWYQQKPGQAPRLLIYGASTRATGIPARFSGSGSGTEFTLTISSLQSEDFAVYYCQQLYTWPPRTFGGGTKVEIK"
measured = 1.79

[[record]]
binder = "5896 (antibody, V domains shown) VH: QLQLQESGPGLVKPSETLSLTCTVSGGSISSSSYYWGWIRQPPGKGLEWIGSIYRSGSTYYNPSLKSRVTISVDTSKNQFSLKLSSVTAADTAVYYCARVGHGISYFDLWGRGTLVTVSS VL: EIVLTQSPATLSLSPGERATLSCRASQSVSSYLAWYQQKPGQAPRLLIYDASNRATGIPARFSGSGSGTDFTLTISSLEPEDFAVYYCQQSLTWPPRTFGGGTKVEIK"
measured = 3.46

[[record]]
binder = "5891 (antibody, V domains shown) VH: QVQLVQSGAEVKKPGSSVKVSCKASGGTFSSYAISWVRQAPGQGLEWMGNIIPIFGPANYAQKFQGRVTITADESTSTAYMELSSLRSEDTAVYYCARSGGTKYGMLDVWGQGTMVTVSS VL: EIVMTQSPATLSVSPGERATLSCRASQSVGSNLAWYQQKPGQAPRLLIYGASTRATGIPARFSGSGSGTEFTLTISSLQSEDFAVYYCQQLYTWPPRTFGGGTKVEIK"
measured = 3.03


Source: patent US20210206877A1
